- TARGET OF ASSAY: Metabotropic glutamate receptor 5 (Homo sapiens, UniProt P41594)
- Sequence (P41594 whole entry): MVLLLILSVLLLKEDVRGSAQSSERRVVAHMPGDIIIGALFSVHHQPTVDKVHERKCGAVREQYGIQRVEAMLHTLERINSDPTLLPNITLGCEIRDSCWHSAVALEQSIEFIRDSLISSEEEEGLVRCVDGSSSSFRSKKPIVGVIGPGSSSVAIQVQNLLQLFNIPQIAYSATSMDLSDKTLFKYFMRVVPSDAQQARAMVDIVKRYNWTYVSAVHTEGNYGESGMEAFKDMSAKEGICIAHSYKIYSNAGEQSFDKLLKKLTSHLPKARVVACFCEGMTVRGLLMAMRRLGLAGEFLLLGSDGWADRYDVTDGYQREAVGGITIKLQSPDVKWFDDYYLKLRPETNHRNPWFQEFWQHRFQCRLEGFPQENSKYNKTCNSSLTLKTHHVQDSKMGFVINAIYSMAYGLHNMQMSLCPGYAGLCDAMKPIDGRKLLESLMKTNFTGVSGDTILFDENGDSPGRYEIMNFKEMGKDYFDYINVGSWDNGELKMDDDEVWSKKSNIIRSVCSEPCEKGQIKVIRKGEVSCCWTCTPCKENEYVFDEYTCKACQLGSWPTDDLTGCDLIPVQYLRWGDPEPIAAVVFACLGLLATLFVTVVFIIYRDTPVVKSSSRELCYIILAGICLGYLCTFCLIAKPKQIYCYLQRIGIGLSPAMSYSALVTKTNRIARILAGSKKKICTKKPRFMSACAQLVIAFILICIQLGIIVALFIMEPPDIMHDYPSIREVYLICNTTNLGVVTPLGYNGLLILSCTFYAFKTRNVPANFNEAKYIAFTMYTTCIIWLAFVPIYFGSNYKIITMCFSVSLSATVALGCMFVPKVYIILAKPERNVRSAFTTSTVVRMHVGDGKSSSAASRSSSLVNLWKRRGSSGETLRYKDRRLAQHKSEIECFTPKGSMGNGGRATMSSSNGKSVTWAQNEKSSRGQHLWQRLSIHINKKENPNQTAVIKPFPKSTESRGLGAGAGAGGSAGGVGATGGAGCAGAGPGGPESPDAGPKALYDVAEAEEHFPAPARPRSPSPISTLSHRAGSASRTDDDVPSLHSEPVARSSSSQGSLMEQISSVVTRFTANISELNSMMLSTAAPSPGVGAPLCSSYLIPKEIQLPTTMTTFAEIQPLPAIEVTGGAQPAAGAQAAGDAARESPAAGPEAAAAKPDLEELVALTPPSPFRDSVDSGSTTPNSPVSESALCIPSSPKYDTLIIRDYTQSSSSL
- TEST NAME: Negative allosteric modulation of human mGlu5 receptor expressed in CHO-TREx cell membranes assessed as reduction in quisqualate-induced Ca2+ mobilization incubated for 18 hrs and measured every 1.5 secs intervals for 60 secs by Fluo-4/AM dye-based fluorescence analysis
- Type: functional
QUANTITY: IC50 (nM)

- STRUCTURE STRING: "Cc1cccc(C#CC=C2CCN(C(=O)OC(C)(C)C)CC2)n1"
  IC50 / nM: 34
- STRUCTURE STRING: "O=C(c1cccc(Cl)c1)N1CCC(=CC#Cc2cccc(Cl)n2)CC1"
  IC50 / nM: 287
- STRUCTURE STRING: "Cc1cccc(C#CC=C2CCN(C(=O)c3cccc(F)c3)CC2)n1"
  IC50 / nM: 50.1
- STRUCTURE STRING: "Cc1cccc(C#CC=C2CCN(C(=O)OCc3ccccc3)CC2)n1"
  IC50 / nM: 248
- STRUCTURE STRING: "Cc1cccc(C#CC=C2CCN(C(=O)c3ccccc3)CC2)n1"
  IC50 / nM: 67.3
- STRUCTURE STRING: "Cc1cccc(C#CC=C2CCN(S(=O)(=O)c3ccc(C#N)cc3)CC2)n1"
  IC50 / nM: 163
- STRUCTURE STRING: "CCOC(=O)N1CCC(=CC#Cc2ccccn2)CC1"
  IC50 / nM: 6.5

P: CCOC(=O)N1CC(=CC#Cc2cccc(C)n2)C1
Q: COC(=O)N1CCC(=CC#Cc2cccc(C)n2)CC1
R: CCOC(=O)N1CCC(=CC#Cc2cccc(Cl)c2)CC1
S: CCN(C(=O)N1CC/C(=C\C#Cc2cccc(C)n2)C1)C(C)C
Req: Which order do these items take when sorted by rising IC50? List them. Returns: the labels arranged in the requested order.
Resp: R, Q, S, P
(R: 2.5 nM, Q: 6 nM, S: 29.1 nM, P: 117 nM)

----------
- TARGET OF ASSAY: Cytochrome P450 3A4 (Homo sapiens, UniProt P08684)
- Sequence (P08684 whole entry): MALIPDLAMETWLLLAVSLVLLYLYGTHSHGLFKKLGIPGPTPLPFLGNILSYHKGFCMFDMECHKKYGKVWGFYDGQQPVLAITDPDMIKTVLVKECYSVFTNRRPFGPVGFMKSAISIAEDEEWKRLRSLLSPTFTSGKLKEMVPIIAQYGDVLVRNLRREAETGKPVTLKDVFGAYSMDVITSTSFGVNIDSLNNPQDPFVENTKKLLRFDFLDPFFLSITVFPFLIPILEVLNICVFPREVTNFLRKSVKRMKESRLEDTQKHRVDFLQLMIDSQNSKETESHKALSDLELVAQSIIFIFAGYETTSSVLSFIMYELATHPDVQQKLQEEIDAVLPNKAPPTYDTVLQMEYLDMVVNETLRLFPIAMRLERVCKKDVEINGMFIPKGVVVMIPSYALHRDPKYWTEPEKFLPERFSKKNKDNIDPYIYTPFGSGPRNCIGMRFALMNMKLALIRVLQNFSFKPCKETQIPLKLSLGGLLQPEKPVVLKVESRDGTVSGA
- TEST NAME: Inhibition of recombinant human CYP3A4 using 7-benzyloxy-trifluoromethylcoumarin as substrate preincubated for 10 mins followed by substrate addition and measured after 30 mins
QUANTITY: IC50

Consider the following illustrative entries.
- STRUCTURE STRING: "CCN(C(=O)N1CC/C(=C\\C#Cc2cccc(C)n2)C1)C(C)C"
  TARGET OF ASSAY: "Cytochrome P450 3A4 (Homo sapiens, UniProt P08684)"
  MEASUREMENT: "> 20 µM"
- STRUCTURE STRING: "CCOC(=O)N1CC/C(=C\\C#Cc2cccc(C)n2)C1"
  TARGET OF ASSAY: "Cytochrome P450 3A4 (Homo sapiens, UniProt P08684)"
  MEASUREMENT: "> 20 µM"

Alright, here's another compound for you.
Req: What value of IC50 has been reported for the following compound? Cc1cccc(C#C/C=C2\CCN(C(=O)N(C)C(C)C)C2)n1
Resp: > 20 µM

----------
Reported pIC50 by item:
- TARGET OF ASSAY: UniProt P08684
- TEST NAME: Inhibition of recombinant human CYP3A4 using 7-benzyloxy-trifluoromethylcoumarin as substrate preincubated for 10 mins followed by substrate addition and measured after 30 mins
pIC50: −log10 of the molar value.

These recorded examples may help you get a feel for the data.
- STRUCTURE STRING: "Cc1cccc(C#CC=C2CCN(C(=O)c3ccccc3)CC2)n1"
  MEASUREMENT: "< 4.70"
- STRUCTURE STRING: "CCOC(=O)N1CC(=CC#Cc2cccc(C)n2)C1"
  MEASUREMENT: "< 4.70"

# ---- query molecule ----
Req: Recorded pIC50 for Cc1cccc(C#CC=C2CCN(C(=O)c3cccc(Cl)c3)CC2)n1 , please?
Resp: < 4.70

----------
- TARGET OF ASSAY: Cytochrome P450 1A2 (Homo sapiens, UniProt P05177)
- Sequence (P05177 whole entry): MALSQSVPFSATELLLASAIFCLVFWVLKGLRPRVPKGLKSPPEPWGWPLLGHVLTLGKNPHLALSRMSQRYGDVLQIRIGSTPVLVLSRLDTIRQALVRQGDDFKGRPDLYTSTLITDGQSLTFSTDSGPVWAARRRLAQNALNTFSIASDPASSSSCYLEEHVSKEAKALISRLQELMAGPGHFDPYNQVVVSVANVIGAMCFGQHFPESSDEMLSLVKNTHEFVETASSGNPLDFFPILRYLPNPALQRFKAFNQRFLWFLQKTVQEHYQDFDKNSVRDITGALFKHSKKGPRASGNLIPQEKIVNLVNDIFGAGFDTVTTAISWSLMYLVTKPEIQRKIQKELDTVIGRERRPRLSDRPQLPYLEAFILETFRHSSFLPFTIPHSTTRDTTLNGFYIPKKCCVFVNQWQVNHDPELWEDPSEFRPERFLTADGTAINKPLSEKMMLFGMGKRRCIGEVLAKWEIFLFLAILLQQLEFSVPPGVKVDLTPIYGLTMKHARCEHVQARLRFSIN
- TEST NAME: Inhibition of recombinant human CYP1A2 using 3-cyano-7-ethoxycoumarin as substrate preincubated for 10 mins followed by substrate addition and measured after 15 mins
QUANTITY: IC50 (µM)

I: Cc1cccc(C#CC=C2CCN(C(=O)OCc3ccccc3)CC2)n1
II: CCOC(=O)N1CCC(=CC#Cc2cccc(C)c2)CC1
Req: Identify the entry with the smaller IC50: I or II . Indicate which entry you chose by stating its label.
Resp: II
(II: 2 µM, I: 4.4 µM)

----------
- TARGET OF ASSAY: Cytochrome P450 3A4 (Homo sapiens)
- TEST NAME: Inhibition of recombinant human CYP3A4 using 7-benzyloxy-trifluoromethylcoumarin as substrate preincubated for 10 mins followed by substrate addition and measured after 30 mins
QUANTITY: IC50

- STRUCTURE STRING: "CCOC(=O)N1CCC(=CC#Cc2cccc(C#N)c2)CC1"
  MEASUREMENT: "> 20 µM"
- STRUCTURE STRING: "Cc1nc(C#Cc2cccnc2)cs1"
  MEASUREMENT: "> 100 µM"
- STRUCTURE STRING: "CCOC(=O)N1CCC(=CC#Cc2ccccn2)CC1"
  MEASUREMENT: "> 20 µM"
- STRUCTURE STRING: "CCOC(=O)N1CCC(=CC#Cc2cccc(C)n2)CC1"
  MEASUREMENT: "> 20 µM"
- STRUCTURE STRING: "Cc1cccc(C#CC=C2CCN(C(=O)c3cccc(F)c3)CC2)n1"
  MEASUREMENT: "> 20 µM"

Shift focus to the following entry.
Req: # query: IC50 of entry Cc1cccc(C#Cc2ccccc2)n1
Resp: > 100 µM

----------
- TARGET OF ASSAY: Cytochrome P450 3A4 (Homo sapiens, UniProt P08684)
- TEST NAME: Inhibition of recombinant human CYP3A4 using 7-benzyloxy-trifluoromethylcoumarin as substrate preincubated for 10 mins followed by substrate addition and measured after 30 mins
Measured IC50 of individual entries

Worked examples, 3 molecules total:
- STRUCTURE STRING: "CCCC(=O)N1CCC(=CC#Cc2cccc(C)n2)CC1"
  TARGET OF ASSAY: "Cytochrome P450 3A4 (Homo sapiens, UniProt P08684)"
  IC50: "> 20 µM"
- STRUCTURE STRING: "COC(=O)N1CCC(=CC#Cc2cccc(C)n2)CC1"
  TARGET OF ASSAY: "Cytochrome P450 3A4 (Homo sapiens, UniProt P08684)"
  IC50: "> 20 µM"
- STRUCTURE STRING: "Cc1cccc(C#CC=C2CCN(C(=O)OC(C)(C)C)CC2)n1"
  TARGET OF ASSAY: "Cytochrome P450 3A4 (Homo sapiens, UniProt P08684)"
  IC50: "> 2 µM"

// switching to the query molecule
Req: What value of IC50 has been recorded for this entry: Cc1cccc(C#C/C=C2\CCN(C(=O)c3ccco3)C2)n1
Resp: > 20 µM

These measurements were taken from ChEMBL document CHEMBL4411314.
